- SYSTEM_TESTED: Adenosine receptor A1 (Homo sapiens)
- ASSAY_SUMMARY: Displacement of [3H]CCPA from human adenosine A1 receptor expressed in CHO cells relative to untreated control
- Assay type: cell-based
VALUE_TYPE: Activity

CN1CCN(Cc2csc(N)c2C(=O)c2ccc(Cl)cc2)CC1 : 1.1
Nc1scc(CN2CCN(c3ncccn3)CC2)c1C(=O)c1ccc(Cl)cc1 : 2.8
Nc1scc(CN2CCN(Cc3ccccc3)CC2)c1C(=O)c1ccc(Cl)cc1 : 6.1
Nc1scc(CN2CCN(c3ccccn3)CC2)c1C(=O)c1ccc(Cl)cc1 : 3.5
Cc1ccc(N2CCN(Cc3csc(N)c3C(=O)c3ccc(Cl)cc3)CC2)cc1 : 3.9
Nc1scc(CN2CCN(C3CCCCC3)CC2)c1C(=O)c1ccc(Cl)cc1 : 1.2
Cc1sc(N)c(C(=O)c2cccc(C(F)(F)F)c2)c1C : 1.3
N#Cc1ccc(N2CCN(Cc3csc(N)c3C(=O)c3ccc(Cl)cc3)CC2)cc1 : 4.8
Nc1scc(CN2CCN(c3ccc(F)cc3)CC2)c1C(=O)c1ccc(Cl)cc1 : 6.7
Nc1scc(CN2CCN(c3ccc4c(c3)OCO4)CC2)c1C(=O)c1ccc(Cl)cc1 : 1.4
Nc1scc(CN2CCN(c3ccc(Cl)cc3)CC2)c1C(=O)c1ccc(Cl)cc1 : 7
Nc1scc(CN2CCN(c3ccccc3)CC2)c1C(=O)c1ccc(Cl)cc1 : 6.5
Nc1scc(CN2CCN(c3ccc(C(F)(F)F)cc3)CC2)c1C(=O)c1ccc(Cl)cc1 : 7.7

---

Known Activity of a selection of compounds
- SYSTEM_TESTED: Adenosine receptor A1 (Homo sapiens) (UniProt P30542)
- Sequence (P30542 whole entry): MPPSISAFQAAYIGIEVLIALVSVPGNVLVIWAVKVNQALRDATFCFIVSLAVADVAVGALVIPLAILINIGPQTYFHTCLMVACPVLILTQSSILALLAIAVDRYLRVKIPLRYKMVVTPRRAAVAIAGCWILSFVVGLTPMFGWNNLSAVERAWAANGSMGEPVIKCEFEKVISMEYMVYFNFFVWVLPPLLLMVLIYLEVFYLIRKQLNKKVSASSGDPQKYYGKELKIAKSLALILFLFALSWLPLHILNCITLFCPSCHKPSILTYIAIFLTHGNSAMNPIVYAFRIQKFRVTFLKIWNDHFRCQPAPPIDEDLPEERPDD
- ASSAY_SUMMARY: Activity at human recombinant adenosine A1 receptor expressed in CHO cells assessed as cAMP level at 10 uM
- Format: functional, cell-based
VALUE_TYPE: Activity (%)

Nc1scc(CN2CCN(c3ccc(Cl)cc3)CC2)c1C(=O)c1ccc(Cl)cc1 : 78
Nc1scc(CN2CCN(c3ccccn3)CC2)c1C(=O)c1ccc(Cl)cc1 : 69
Nc1scc(CN2CCN(c3ccc(C(F)(F)F)cc3)CC2)c1C(=O)c1ccc(Cl)cc1 : 87
Nc1scc(CN2CCN(C3CCCCC3)CC2)c1C(=O)c1ccc(Cl)cc1 : 52
Nc1scc(CN2CCN(Cc3ccccc3)CC2)c1C(=O)c1ccc(Cl)cc1 : 78
Cc1ccc(N2CCN(Cc3csc(N)c3C(=O)c3ccc(Cl)cc3)CC2)cc1 : 66
Nc1scc(CN2CCN(c3ccccc3)CC2)c1C(=O)c1ccc(Cl)cc1 : 78
Nc1scc(CN2CCN(c3ccc(F)cc3)CC2)c1C(=O)c1ccc(Cl)cc1 : 77

---

- SYSTEM_TESTED: Adenosine receptor A1 (Homo sapiens)
- ASSAY_SUMMARY: Activity at human recombinant adenosine A1 receptor expressed in CHO cells assessed as cAMP level at 0.01 uM
- Format: functional, cell-based
VALUE_TYPE: Activity (%)

N#Cc1ccc(N2CCN(Cc3csc(N)c3C(=O)c3ccc(Cl)cc3)CC2)cc1 : 12
Nc1scc(CN2CCN(c3ccc(C(F)(F)F)cc3)CC2)c1C(=O)c1ccc(Cl)cc1 : 10
Nc1scc(CN2CCN(c3ccc(F)cc3)CC2)c1C(=O)c1ccc(Cl)cc1 : 3
Cc1sc(N)c(C(=O)c2cccc(C(F)(F)F)c2)c1C : 8
Nc1scc(CN2CCN(c3ccc4c(c3)OCO4)CC2)c1C(=O)c1ccc(Cl)cc1 : 15
